molecular target: P2Y6 receptor (Homo sapiens); test: inositol phosphate assay, P2Y6 receptor activity
Sequence (Q15077 whole entry): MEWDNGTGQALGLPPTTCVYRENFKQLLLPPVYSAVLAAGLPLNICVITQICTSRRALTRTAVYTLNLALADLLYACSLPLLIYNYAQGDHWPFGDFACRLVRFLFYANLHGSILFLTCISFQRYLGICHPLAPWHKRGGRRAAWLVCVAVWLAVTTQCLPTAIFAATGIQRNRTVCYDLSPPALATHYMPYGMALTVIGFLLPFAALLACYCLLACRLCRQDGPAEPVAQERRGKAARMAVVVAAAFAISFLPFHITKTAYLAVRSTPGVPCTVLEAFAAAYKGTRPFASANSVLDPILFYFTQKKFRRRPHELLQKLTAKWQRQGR
pEC50: −log10 of the molar value.
result-type: pEC50

Below are worked cases with known answers.
compound	system	experimental-value
Cc1cn([C@H]2C[C@H](N=[N+]=[N-])[C@@H](COP(=O)(O)OP(=O)(O)OP(=O)(O)OP(=O)(O)OC[C@H]3O[C@@H](n4ccc(=O)[nH]c4=O)[C@H](O)[C@@H]3O)O2)c(=O)[nH]c1=O	P2Y6 receptor (Homo sapiens)	6.27
Nc1ccn([C@@H]2O[C@H](COP(=O)(O)OP(=O)(O)OP(=O)(O)OP(=O)(O)OC[C@H]3O[C@@H](n4ccc(=O)[nH]c4=O)[C@H](O)[C@@H]3O)[C@@H](O)[C@@H]2O)c(=O)n1	P2Y6 receptor (Homo sapiens)	5.89
Cc1cn([C@H]2C[C@H](O)[C@@H](COP(=O)(O)OP(=O)(O)OP(=O)(O)OP(=O)(O)OC[C@H]3O[C@@H](n4ccc(=O)[nH]c4=O)[C@H](O)[C@@H]3O)O2)c(=O)[nH]c1=O	P2Y6 receptor (Homo sapiens)	6.06
O=c1ccn([C@@H]2O[C@H](COP(=O)(O)OP(=O)(O)OP(=O)(O)OP(=O)(O)OP(=O)(O)OC[C@H]3O[C@@H](n4ccc(=O)[nH]c4=O)[C@H](O)[C@@H]3O)[C@@H](O)[C@H]2O)c(=O)[nH]1 [Example 5, P^1,P^5-Di(uridine 5′-pentaphosphate)]	P2Y6 receptor (Homo sapiens)	4.03
O=c1ccn([C@@H]2O[C@H](COP(=O)(O)OP(=O)(O)OP(=O)(O)OP(=O)(O)OC[C@H]3O[C@@H](n4ccc(=S)[nH]c4=O)[C@H](O)[C@@H]3O)[C@@H](O)[C@H]2O)c(=O)[nH]1	P2Y6 receptor (Homo sapiens)	5.75
O=c1ccn([C@@H]2O[C@H](COP(=O)(O)OP(=O)(O)OP(=O)(O)OP(=O)(O)OC[C@H]3O[C@@H](n4cnc5c(=O)[nH]c(=O)[nH]c54)[C@H](O)[C@@H]3O)[C@@H](O)[C@H]2O)c(=O)[nH]1	P2Y6 receptor (Homo sapiens)	5.47
O=c1n([C@@H]2O[C@H](COP(=O)(O)OP(=O)(O)OP(=O)(O)OP(=O)(O)OC[C@H]3O[C@@H](n4ccc5nc(-c6cccc([N+](=O)[O-])c6)cn5c4=O)[C@H](O)[C@@H]3O)[C@@H](O)[C@H]2O)ccc2nc(-c3cccc([N+](=O)[O-])c3)cn12	P2Y6 receptor (Homo sapiens)	6.06

A: O=c1ccn([C@@H]2O[C@H](COP(=O)(O)OP(=O)(O)NP(=O)(O)OP(=O)(O)OC[C@H]3O[C@@H](n4ccc(=O)[nH]c4=O)[C@H](O)[C@@H]3O)[C@@H](O)[C@H]2O)c(=O)[nH]1
B: O=c1ccn([C@@H]2O[C@H](COP(=O)(O)OP(=O)(O)OP(=O)(O)OP(=O)(O)OC[C@H]3O[C@@H](n4ccc(=O)[nH]c4=O)C[C@@H]3O)[C@@H](O)[C@H]2O)c(=O)[nH]1
Query: Lower value for measured pEC50? Options: A , B Lab note: record the label of whichever item you select.
Response: A

* * *

target: P2Y4 receptor (Homo sapiens, UniProt P51582); assay: inositol phosphate assay, P2Y4 receptor activity; details: inositol phosphate formation
Sequence (P51582 whole entry): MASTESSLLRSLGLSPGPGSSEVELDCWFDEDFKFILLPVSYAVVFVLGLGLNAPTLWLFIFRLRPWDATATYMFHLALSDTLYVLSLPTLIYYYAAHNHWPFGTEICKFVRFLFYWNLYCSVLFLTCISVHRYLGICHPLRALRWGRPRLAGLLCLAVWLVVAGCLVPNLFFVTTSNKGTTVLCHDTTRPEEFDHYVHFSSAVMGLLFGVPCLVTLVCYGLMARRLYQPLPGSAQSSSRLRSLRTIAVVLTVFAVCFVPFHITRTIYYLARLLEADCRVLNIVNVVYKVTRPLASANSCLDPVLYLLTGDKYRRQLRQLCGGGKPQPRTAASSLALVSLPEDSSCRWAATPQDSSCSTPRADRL
result-type: Percentage response of same study positive control, P2Y4 (%)

molecule	experimental-value
O=c1n([C@@H]2O[C@H](COP(=O)(O)OP(=O)(O)OP(=O)(O)OP(=O)(O)OC[C@H]3O[C@@H](n4ccc5nccn5c4=O)[C@H](O)[C@@H]3O)[C@@H](O)[C@H]2O)ccc2nccn12 [Example 6]	75
O=c1ccn([C@@H]2O[C@H](COP(=O)(O)OP(=O)(O)OP(=O)(O)OP(=O)(O)OC[C@H]3O[C@@H](n4cnc5c(=O)[nH]c(=O)[nH]c54)[C@H](O)[C@@H]3O)[C@@H](O)[C@H]2O)c(=O)[nH]1 [Example 11]	75
O=c1ccn([C@@H]2O[C@H](COP(=O)(O)OP(=O)(O)CP(=O)(O)OP(=O)(O)OC[C@H]3O[C@@H](n4ccc(=O)[nH]c4=O)[C@H](O)[C@@H]3O)[C@@H](O)[C@H]2O)c(=O)[nH]1 [Example 1]	60
O=c1ccn([C@@H]2O[C@H](COP(=O)(O)OP(=O)(O)C(F)(F)P(=O)(O)OP(=O)(O)OC[C@H]3O[C@@H](n4ccc(=O)[nH]c4=O)[C@H](O)[C@@H]3O)[C@@H](O)[C@H]2O)c(=O)[nH]1 [Example 2]	80
Nc1ccn([C@@H]2O[C@H](COP(=O)(O)OP(=O)(O)OP(=O)(O)OP(=O)(O)OC[C@H]3O[C@@H](n4ccc(=O)[nH]c4=O)[C@H](O)[C@@H]3O)[C@@H](O)[C@@H]2O)c(=O)n1 [Example 10]	65
